// values below are reported one-nucleolus phenotype percent effect
- Tested on: MCF10A
- assay protocol: one-nucleolus phenotype percent effect (relative to siNT 0% and siNOL11 100%); higher = more cells with one nucleolus (ribosome biogenesis inhibition)
- test conditions: 20 nM; 72 h

# polymer sequence, assay target, one-nucleolus phenotype percent effect [%]
measured = [
    ("AGGGGUGGUGUUGGGACAGCUCCGU [hsa-miR-608]", "MCF10A", 8.02),
    ("AACUCACGAAGUAUACCGAAGU [hsa-miR-4798-3p]", "MCF10A", -1.81),
    ("UAGGCCUUUAGAUCACUUAAA [hsa-miR-1245b-5p]", "MCF10A", 19.2),
    ("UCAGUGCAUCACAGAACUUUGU [hsa-miR-148b-3p]", "MCF10A", -21.1),
    ("UUCAAGUAAUUCAGGAUAGGU [hsa-miR-26b-5p]", "MCF10A", -8.67),
    ("CCAGAGCAGCCUGCGGUAACAGU [hsa-miR-6501-3p]", "MCF10A", 1.17),
    ("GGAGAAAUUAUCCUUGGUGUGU [hsa-miR-539-5p]", "MCF10A", -14.8),
    ("UGAGGAGAUCGUCGAGGUUGG [hsa-miR-3150b-3p]", "MCF10A", -11.7),
    ("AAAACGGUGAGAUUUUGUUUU [hsa-miR-553]", "MCF10A", -24.2),
    ("UAGCCCCCAGGCUUCACUUGGCG [hsa-miR-3943]", "MCF10A", 8.41),
    ("UUGCUCCUGACUCUGUGCCCACA [hsa-miR-6772-3p]", "MCF10A", 1.77),
]

The origin of these recorded values is the supplement of paper PMC10899765.
